molecular target: human IGF-I receptor (human, UniProt P08069 31-1367); test: cell-based or functional assay
Sequence (P08069 31-1367 limits assumed): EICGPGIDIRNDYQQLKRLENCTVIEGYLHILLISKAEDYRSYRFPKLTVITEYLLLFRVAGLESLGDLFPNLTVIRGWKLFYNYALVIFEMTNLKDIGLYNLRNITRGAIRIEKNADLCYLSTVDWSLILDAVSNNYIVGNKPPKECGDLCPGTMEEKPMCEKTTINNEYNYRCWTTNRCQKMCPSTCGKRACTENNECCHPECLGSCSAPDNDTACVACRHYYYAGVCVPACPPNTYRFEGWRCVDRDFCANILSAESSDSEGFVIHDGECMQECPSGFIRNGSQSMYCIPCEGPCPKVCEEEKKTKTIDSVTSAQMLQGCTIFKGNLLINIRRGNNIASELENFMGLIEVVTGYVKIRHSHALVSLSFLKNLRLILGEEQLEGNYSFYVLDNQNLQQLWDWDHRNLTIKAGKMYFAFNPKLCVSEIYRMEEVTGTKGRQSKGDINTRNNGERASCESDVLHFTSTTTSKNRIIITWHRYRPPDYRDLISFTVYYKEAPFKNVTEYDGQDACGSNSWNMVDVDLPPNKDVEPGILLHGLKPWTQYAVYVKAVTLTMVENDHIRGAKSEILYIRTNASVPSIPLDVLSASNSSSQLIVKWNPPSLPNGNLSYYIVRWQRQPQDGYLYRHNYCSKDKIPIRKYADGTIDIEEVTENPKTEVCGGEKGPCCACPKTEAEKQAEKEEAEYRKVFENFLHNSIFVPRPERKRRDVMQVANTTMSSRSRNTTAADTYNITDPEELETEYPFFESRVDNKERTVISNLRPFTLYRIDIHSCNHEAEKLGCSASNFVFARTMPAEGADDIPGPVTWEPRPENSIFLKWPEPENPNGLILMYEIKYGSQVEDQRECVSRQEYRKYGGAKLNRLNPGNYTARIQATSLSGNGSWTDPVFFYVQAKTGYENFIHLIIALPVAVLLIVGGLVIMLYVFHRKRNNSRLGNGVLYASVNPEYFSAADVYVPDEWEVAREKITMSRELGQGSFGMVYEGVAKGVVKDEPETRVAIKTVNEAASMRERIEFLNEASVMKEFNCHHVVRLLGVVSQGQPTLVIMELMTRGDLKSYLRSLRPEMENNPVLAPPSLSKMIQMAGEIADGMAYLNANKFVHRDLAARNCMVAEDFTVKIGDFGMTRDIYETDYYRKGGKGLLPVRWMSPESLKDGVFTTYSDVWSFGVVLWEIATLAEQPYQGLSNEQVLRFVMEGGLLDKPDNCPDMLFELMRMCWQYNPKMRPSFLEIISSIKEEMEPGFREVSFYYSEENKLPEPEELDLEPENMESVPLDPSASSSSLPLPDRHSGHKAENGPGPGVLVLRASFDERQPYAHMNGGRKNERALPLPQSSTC
MEASURED_PARAMETER: Proliferation activity on human myoblast cells (%), 0.5 nM, Experiment 2
Field format: number, assumed %, no unit text.

Request: Annotate the binder anti-IGF-I receptor humanized antibody R11-16E (antibody, human IgG4, V domains shown, also called R11-16E antibody; R11-16VH + R11-16VL-C36F) VH: QVQLVQPGAELVKPGASVKVSCKAPGYTFTSYWMHWVRQAPGQGLEWIGETNPSNSVTNYNEKFKSKATLTVDTSTSTVYMELSSLRSEDTAVYYCTIGRGRGFAYWGQGTLVTVSS VL: DIQMTQSPSSLSASVGDRVTITCRASQNINFWLSWFQQKPGKAPKLLIYKASNLHTGVPSRFSGSGSGTDFTFTISSLQPEDIATYYCLQGQSYPYTFGQGTKLEIK with its measured Proliferation activity on human myoblast cells (%), 0.5 nM, Experiment 2.
Result: 164
